All figures here come from ChEMBL document CHEMBL3638701.

# target-or-system: UniProt P49840
# Sequence (P49840 whole entry): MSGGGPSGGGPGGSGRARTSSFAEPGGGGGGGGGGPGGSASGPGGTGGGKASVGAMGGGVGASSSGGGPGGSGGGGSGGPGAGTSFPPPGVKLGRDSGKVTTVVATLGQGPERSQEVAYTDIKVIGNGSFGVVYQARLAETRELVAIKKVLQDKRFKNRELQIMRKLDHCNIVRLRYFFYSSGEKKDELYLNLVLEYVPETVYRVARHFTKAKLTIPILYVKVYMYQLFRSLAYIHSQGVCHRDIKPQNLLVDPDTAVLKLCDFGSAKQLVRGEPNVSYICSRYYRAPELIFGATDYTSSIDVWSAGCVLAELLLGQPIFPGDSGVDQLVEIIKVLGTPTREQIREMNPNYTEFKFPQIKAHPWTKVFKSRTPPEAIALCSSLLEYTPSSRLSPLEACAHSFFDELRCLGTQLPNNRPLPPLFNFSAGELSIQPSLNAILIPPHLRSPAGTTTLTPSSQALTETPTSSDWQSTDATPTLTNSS
# assay-info: In Vitro Kinase Inhibition Assay: In vitro kinase assay analysis may be performed using standard techniques described in the art. These techniques are also used by commercial services providers in order to offer in vitro kinase activity assay services, e.g. the assays offered by Millipore Inc. (worldwide website www(dot)millipore.com), ProQinase GmbH (worldwide website www(dot)proqinase.de) and others. All kinase assays were performed in 96-well FlashPlates from Perkin Elmer/NEN (Boston, Mass., USA) in a 50ul reaction volume. The reaction mixture was pipetted in four steps in the following order: 20ul of assay buffer (standard buffer),5ul of ATP solution (in H2O, 5 ul of test compound (in 10% DMSO), 10ul of substrate/10ul of enzyme solution (premixed)The assay for all enzymes contained 60 mM HEPES-NaOH (pH 7.5), 3 mM MgCl2, 3 mM MnCl2, 3uM Na-Orthovanadate, 1.2 mM DTT, 50 ug/ml PEG2000, 1 uM [33P]-ATP (approx. 5x1005 cpm per well).
readout-kind: IC50 (nM)
Please reply with the bare figure in nM and do not write the unit itself.

# input Provide measured IC50 value, entry: COc1cc(F)ccc1-c1ccnc(NC(=O)[C@@H]2CC[C@H](NC(C)=O)C2)c1
# output 99
